Target: M1 muscarinic receptor (Homo sapiens, UniProt P11229)
Construct: expressed in transfected cells; host or cells: CHO (M1-CHO)
Sequence (P11229 1-460): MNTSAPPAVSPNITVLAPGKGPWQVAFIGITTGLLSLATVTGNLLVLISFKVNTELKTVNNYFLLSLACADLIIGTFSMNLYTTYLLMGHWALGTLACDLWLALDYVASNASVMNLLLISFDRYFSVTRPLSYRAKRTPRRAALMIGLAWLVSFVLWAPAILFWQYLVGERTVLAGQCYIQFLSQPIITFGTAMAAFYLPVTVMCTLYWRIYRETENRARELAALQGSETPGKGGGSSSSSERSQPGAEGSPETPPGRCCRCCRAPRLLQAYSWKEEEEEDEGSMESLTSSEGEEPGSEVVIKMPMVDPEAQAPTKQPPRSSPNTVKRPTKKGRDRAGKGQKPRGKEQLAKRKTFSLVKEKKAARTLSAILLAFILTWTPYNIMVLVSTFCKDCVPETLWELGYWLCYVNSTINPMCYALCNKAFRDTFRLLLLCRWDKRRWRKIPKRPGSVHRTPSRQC
Test: Functional mobilization of intracellular calcium (FLIPR) in M1-CHO cells
Assay type: cell-based
Settings: Table 4; 100% efficacy is the maximum response obtained with the Carbachol control
So I've got a bunch of compounds here, and I need their Emax values.

Give one value of Emax per listed compound.
1. CCOC(=O)N1C2CCC1CC(N1CCC3(CC(=O)c4cc(F)ccc43)C1)C2 (stereo not shown)
2. CCOC(=O)N1CC[C@@H](CN2CCC3(CC2)CN(C(C)=O)c2ccccc23)C1
3. Fc1ccc2c(c1)C1(CCN(C3CC4CCC3O4)CC1)CN2 (stereo not shown)

1: > 100%; 2: 25 to 100%; 3: < 25%

# map each compound to its Emax
1. CC(=O)N[C@H]1CCC2(CCN(CCC3CCCCC3)CC2)c2ccccc21
2. CCOC(=O)N1CCC(N2CCC3(CC2)CN(C(C)=O)c2c(C)cc(C)cc23)CC1
3. CCOC(=O)N1CCC(N2CCC3(CC2)CN(c2nccs2)c2ccc(F)cc23)CC1
4. CCOC(=O)N1CC[C@H](CN2CCC3(CC2)CN(C(C)=O)c2ccccc23)C1
5. CCOC(=O)N1CCC(N2CCC3(CC2)CN(c2ccccn2)c2ccc(F)cc23)CC1
6. CN(C)C(=O)N1CC2(CCN(C3CCN(c4cnc5ccccc5n4)CC3)CC2)c2cc(F)ccc21
7. CCCC#CCOC(=O)N1CC[C@@H](CN2CCC3(CC2)CN(C(=O)N(C)C)c2ccc(F)cc23)C1

25 to 100%
25 to 100%
25 to 100%
25 to 100%
25 to 100%
25 to 100%
25 to 100%
